Test: Permeability test in Caco-2 cell monolayers
Type: in vitro ADME
Conditions: human, Caco-2; Kp [B to A]/Kp [A to B]
valueKind: efflux ratio at 120 min, 50 μM
Enter the number alone.

query: Fill in the blank: the reported efflux ratio at 120 min, 50 μM of CC(C(=O)O)c1ccc(C=C2CCCCC2=O)cc1 (stereo not shown) [PEL] is ____.
result: 1.24

====

Experiment: Solubility at various pH values
Type: physicochemical
Conditions: aqueous buffer, thermodynamic from solid; pH 6.8 solution, stirred 24 h, mean ± S.D. (n = 3)
valueKind: solubility at 24 h (µg/mL)
Hi! Could you send only the number? It should be in µg/mL, unit omitted.

query: Fill in the blank: the reported solubility at 24 h of CC(C(=O)O)c1ccc(C=C2CCCCC2=O)cc1 (stereo not shown) [PEL] is ____.
result: 4050

====

Assay: Solubility at various pH values
Assay type: physicochemical
Conditions: aqueous buffer, thermodynamic from solid; pH 4.0 solution, stirred 24 h, mean ± S.D. (n = 3)
valueKind: solubility at 24 h (µg/mL)
Hi! Could you send only the number? It should be in µg/mL, unit omitted.

query: Fill in the blank: the reported solubility at 24 h of CC(C(=O)O)c1ccc(C=C2CCCCC2=O)cc1 (stereo not shown) [PEL] is ____.
result: 70

====

Assay: PK study in rats after oral administration
Type: in vivo, Sprague-Dawley (SD) rats
Details: male, Sprague-Dawley, rat, plasma, po, 9.3 mg/kg, PEL in plasma, single oral dose 9.3 mg/kg PEL equivalent, n = 10
valueKind: Tmax (min)
Hi! Could you send only the number? It should be in min, unit omitted.

query: Fill in the blank: the reported Tmax of CC(C(=O)O)c1ccc(C=C2CCCCC2=O)cc1 (stereo not shown) is ____.
result: 23.4

====

Test: Solubility at various pH values
Type: physicochemical
Conditions: thermodynamic from solid; water, stirred 24 h, mean ± S.D. (n = 3)
valueKind: solubility at 24 h (µg/mL)
Hi! Could you send only the number? It should be in µg/mL, unit omitted.

query: Fill in the blank: the reported solubility at 24 h of CC(C(=O)O)c1ccc(C=C2CCCCC2=O)cc1 (stereo not shown) [PEL] is ____.
result: 130

====

Assay: PK study in rats after oral administration
Assay type: in vivo, Sprague-Dawley (SD) rats
Settings: male, Sprague-Dawley, rat, PEL in plasma, single oral dose 9.3 mg/kg PEL equivalent, n = 10
valueKind: Cmax
Hey, just the number and the unit after it is fine.

query: Fill in the blank: the reported Cmax of CC(C(=O)O)c1ccc(C=C2CCCCC2=O)cc1 (stereo not shown) [PEL] is ____.
result: 46.3 ng/mL
